B1: CDC25A (parent)
chain: QLIDPDENKENEAFEFKKPVRPVS

# Variants of: B1
# METHOD SUMMARY: protein stability index of a GFP-peptide fusion (GPS, HEK-293T) (PSI 1-6); higher = more stable;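 note: lentivirally expressed fusions sorted by FACS into six bins by GFP to DsRed ratio, PSI derived from sequencing read proportions per bin multiplied by bin number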
# ASSAY SETUP: c terminus: a fixed tail appended

>  <POLYMER SEQUENCE>
QLIDPDKNKENEAFEFKKPVRPVS [E7K]

>  <protein stability index>
4.59

$$$$
>  <POLYMER SEQUENCE>
QLIDPDENKENEAFEFKKPVRLVS [P22L]

>  <protein stability index>
3.45

$$$$
>  <POLYMER SEQUENCE>
QLIDPDEFKENEAFEFKKPVRPVS [N8F]

>  <protein stability index>
4.08

$$$$
>  <POLYMER SEQUENCE>
SLIDPDENKENEAFEFKKPVRPVS [Q1S]

>  <protein stability index>
4.43

$$$$
>  <POLYMER SEQUENCE>
QLIDNDENKENEAFEFKKPVRPVS [P5N]

>  <protein stability index>
4.06

$$$$
>  <POLYMER SEQUENCE>
QLIDPDENKENEAFEFKKPVQPVS [R21Q]

>  <protein stability index>
4.67

$$$$
>  <POLYMER SEQUENCE>
QLIDPDMNKENEAFEFKKPVRPVS [E7M]

>  <protein stability index>
3.95

$$$$
>  <POLYMER SEQUENCE>
QLIDPDENKENEAFEFAKPVRPVS [K17A]

>  <protein stability index>
4.44

$$$$
>  <POLYMER SEQUENCE>
QLCDPDENKENEAFEFKKPVRPVS [I3C]

>  <protein stability index>
3.92

$$$$
>  <POLYMER SEQUENCE>
MLIDPDENKENEAFEFKKPVRPVS [Q1M]

>  <protein stability index>
3.97

$$$$
>  <POLYMER SEQUENCE>
QLRDPDENKENEAFEFKKPVRPVS [I3R]

>  <protein stability index>
4.75

$$$$
>  <POLYMER SEQUENCE>
QLIDPDENKENEAFEAKKPVRPVS [F16A]

>  <protein stability index>
4.03

$$$$
>  <POLYMER SEQUENCE>
QLIDPDENKENEAFEFKKFVRPVS [P19F]

>  <protein stability index>
4.44

$$$$
>  <POLYMER SEQUENCE>
QLIDPDENKENEAFEDKKPVRPVS [F16D]

>  <protein stability index>
4.46

$$$$
>  <POLYMER SEQUENCE>
QLIDPDENVENEAFEFKKPVRPVS [K9V]

>  <protein stability index>
4.83

$$$$

Taken from the supplement of paper PMC10567573.
